assayMethodText: solvent given as SMILES
conditionParameters: in ClCCl
reportedEndpoint: absorption maximum (nm)
Express your answer in nm, writing the number without its unit.

Consider the following illustrative entries.
[[record]]
compound = "Cc1ccc(C2=C3C=CC(C#Cc4ccccc4)=[N+]3[B-](F)(F)n3c(C#Cc4ccccc4)ccc32)cc1"
reportedendpoint = "absorption maximum"
resultnumber = 614

[[record]]
compound = "CC1=CC(C)=[N+]2C1=Cc1c3ccccc3c(C#Cc3cccs3)n1[B-]2(F)F"
reportedendpoint = "absorption maximum"
resultnumber = 618

[[record]]
compound = "Nc1nc2ccc([N+](=O)[O-])cc2s1"
reportedendpoint = "absorption maximum"
resultnumber = 346

[[record]]
compound = "CCCCN1C(=O)C2=C(c3ccc(-c4ccc5c(c4)C(C)(C)c4ccccc4-5)cc3)[N-]C(=O)C2=C1c1ccc(-c2ccc3c(c2)C(C)(C)c2ccccc2-3)cc1"
reportedendpoint = "absorption maximum"
resultnumber = 594

[[record]]
compound = "COc1ccc(C2=Cc3ccccc3P2(=O)c2ccccc2)cc1 (configuration not stated)"
reportedendpoint = "absorption maximum"
resultnumber = 365

[[record]]
compound = "CCCCn1c2ccc(-c3ccc4c(c3)c3c5c(ccc6ccc7ccccc7c65)ccc3n4CCCC)cc2c2c3c(ccc4ccc5ccccc5c43)ccc21"
reportedendpoint = "absorption maximum"
resultnumber = 336

[[record]]
compound = "Cn1nc(-c2ccc(C#N)cc2)cc1-c1ccccc1"
reportedendpoint = "absorption maximum"
resultnumber = 282

[[record]]
compound = "CCc1s[c+](N2CCCCC2)sc1-c1cc(C)cc(I)c1[O-]"
reportedendpoint = "absorption maximum"
resultnumber = 406

[[record]]
compound = "Cc1nnc(-c2cc(-n3c4ccccc4c4ccccc43)c(-n3c4ccccc4c4ccccc43)cc2-c2nnc(C)o2)o1"
reportedendpoint = "absorption maximum"
resultnumber = 353

[[record]]
compound = "CCN(CC)c1ccc2cc(-c3cn4ccccc4n3)c(=O)oc2c1"
reportedendpoint = "absorption maximum"
resultnumber = 429


q: Identify measured absorption maximum associated with `Cc1ccc(C(=O)NN2C3=C(CC4=C2CCCC4=O)C(=O)CCC3)cc1`
a: 366

q: For the compound `F[B-]1(F)Oc2ccc3ccccc3c2-c2c3c(c4c([n+]21)CCc1ccccc1-4)CCc1ccccc1-3` , give its reported absorption maximum.
a: 346

q: Complete the entry with absorption maximum for `COc1ccccc1C1=[N+]2C(=Cc3c4c(c(-c5ccccc5OC)n3[B-]2(F)F)C2CCC4CC2)C2=C1C1CCC2CC1`
a: 550

q: Return absorption maximum for the following compound: `C(=C\c1nc2ccccc2[nH]1)/c1ccc(-c2nc3c4cccnc4c4ncccc4c3[nH]2)cc1`
a: 382

q: For the compound `CCCCCCOc1cc(/C=C/c2cc(OCCCCCC)c(/C=C/c3cc(OCCCCCC)c(C=C(C#N)C#N)cc3OCCCCCC)cc2OCCCCCC)c(OCCCCCC)cc1C=C(C#N)C#N` , report absorption maximum.
a: 518

q: Return absorption maximum for the following compound: `CCCN1c2ccc(C3=C4C=CC=[N+]4[B-](F)(F)n4cccc43)cc2Sc2cc(C3=C4C=CC=[N+]4[B-](F)(F)n4cccc43)ccc21`
a: 500

q: Find the measured absorption maximum of `O=C1c2cccc3cc(C#CC#Cc4cc5c6c(cccc6c4)C(=O)N(c4ccccc4)C5=O)cc(c23)C(=O)N1c1ccccc1` and report it.
a: 326
